Experimental Target: mouse melanocortin-4 receptor (mouse, UniProt P56450 1-332)
Sequence (P56450 whole entry): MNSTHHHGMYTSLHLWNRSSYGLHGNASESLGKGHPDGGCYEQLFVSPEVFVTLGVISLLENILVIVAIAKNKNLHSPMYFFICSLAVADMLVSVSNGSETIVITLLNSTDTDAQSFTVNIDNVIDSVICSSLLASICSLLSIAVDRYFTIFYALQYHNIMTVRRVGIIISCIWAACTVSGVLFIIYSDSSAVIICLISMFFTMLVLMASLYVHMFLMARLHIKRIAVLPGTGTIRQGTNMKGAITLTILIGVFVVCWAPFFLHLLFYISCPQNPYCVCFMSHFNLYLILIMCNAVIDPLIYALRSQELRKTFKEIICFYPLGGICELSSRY
Protocol Summary: cell-based or functional assay
Square brackets hold non-standard residues; d marks the D form. Bip = N[C@@H](Cc1ccc(-c2ccccc2)cc1)C(=O)O; dPhe(4-I) = N[C@H](Cc1ccc(I)cc1)C(=O)O; 2Nal = N[C@@H](Cc1ccc2ccccc2c1)C(=O)O; Bta = N[C@@H](Cc1csc2ccccc12)C(=O)O; Tic = O=C(O)[C@@H]1Cc2ccccc2CN1
Readout Name: Agonist, % of NDP-MSH maximal response (% @ 100 µM)

Binder	Uom	Agonist, % of NDP-MSH maximal response
Ac-HR[dPhe(4-I)][2Nal]-NH2 [SKY4-48-35, Ac-His-Arg-(pI)DPhe-Nal(2')-NH2]	% @ 100 µM	35

A: Ac-[Bta]R[dPhe(4-I)][Tic]-NH2 [SKY4-48-21, Ac-3Bal-Arg-(pI)DPhe-Tic-NH2]
B: Ac-[Bip]R[dPhe(4-I)][Bip]-NH2 [SKY4-48-4, Ac-Bip-Arg-(pI)DPhe-Bip-NH2]
Prompt line: Sort A and B by Agonist, % of NDP-MSH maximal response descending and give the first. Lab log: write the label of the selected item as the result.
Response line: A
(A: 37 % @ 100 µM, B: 24 % @ 100 µM)
